System: RIPK2
Settings: concentration: 1 μM, replicates: in singlicate; n = 1;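 also: KINOMEscan kinase panel screen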
Listing of recorded %Inh by entry.
Kindly answer with a numeric value in %, unit omitted.

Record excerpt, results attached:
O=C(Nc1n[nH]c2nc(-c3cccs3)c(Br)cc12)C1CCCC1    3
CNc1cc(-c2ccc3c(N)n[nH]c3c2)nc(N)n1    9

Query string: Quick one: %Inh for O=C(Nc1n[nH]c2nc(-c3cccs3)c(Br)cc12)C1CC1 ?
Result string: 95.4

---

In this section we review reported %Inh values for a set of compounds.
Test system: SgK110
Details: concentration: 1 μM, replicates: in singlicate; n = 1
Quick note: give the figure in %, leave out the unit.

Before answering, review these 5 worked examples.
CNc1cc(-c2ccc3c(N)n[nH]c3c2)nc(N)n1 [GSK2224810]    0
Cc1ccccc1Cn1ccn2c(=O)cc(N3CCOCC3)nc12 [GSK2269905]    0
COc1cccc(CNC(=O)NC2CCN(c3ccnc(Nc4ccc(F)cc4)n3)C2)c1 (centres unmarked) [GSK1379723]    1
CSc1ccc(-c2nc3n(c2-c2ccncc2)CCC3)cc1 [SKF-105561]    0
Cc1ccc(NC(=O)Nc2ccc(Cl)cc2)cc1-c1ccc(C(=O)Nc2ccncc2)cc1 [GSK1398472]    10

Query string: I have this compound here, COc1nccc(-c2c(-c3ccc(F)cc3)ncn2CCCN2CCOCC2)n1 [SB-282852] , and I need its recorded %Inh.
Result string: 0

Query string: What about Cc1c(Cn2c(C)c(C)n3c(=O)cc(N4CCOCC4)nc23)cccc1C(F)(F)F [GSK2328680] ?
Result string: 0

Query string: Same question for Cc1cnc(N)c(/C=C/c2cncc(C(=O)NCCc3ccc(Cl)cc3Cl)c2)c1.Cl [GSK190937] please.
Result string: 9

Query string: Next up: Cn1cncc1C(=O)NC1CCN(c2ccnc(Nc3ccc(F)cc3)n2)C1 (centres unmarked) [GSK1379717]
Result string: 6

Query string: Next compound up: COc1ccc(Nc2nccc(NCCNC(=O)Nc3cc(C)ccc3C)n2)cc1 [GSK1379899]
Result string: 0

Query string: How about this compound: Nc1cccc(-c2ccc3c(N)n[nH]c3c2)n1 [GSK2192730]
Result string: 0
